Hi, quick share: literature IC50 data for Matrix metalloproteinase-9 (Homo sapiens), several sources combined.
Form entry: value (µM) — number only.

{"compound": "O=C(OCc1ccc(Cl)cc1)c1cccc(=O)[nH]1", "result-number": 68}

Look up IC50: COc1ccc(S(=O)(=O)N(Cc2ccc(F)nc2)[C@@H](C(=O)O)C(C)C)cc1
9.82

Look up IC50: CC1(C)NC(=O)N(CC(CS(=O)(=O)c2ccc(Oc3ccc(OC(F)(F)F)cc3)cc2)N(O)C=O)C1=O (centres undefined)
0.002

Look up IC50: O=C(OCc1ccc(F)cc1)c1cccc(S)n1
120

---

Hi, quick share: literature pIC50 data for Matrix metalloproteinase-9 (Homo sapiens, UniProt P14780), several sources combined.
Field pIC50 (float): negative decimal logarithm of the concentration in molar.

Completed entries (count: 3):
{"smiles-code": "CC(C)[C@H](C(=O)NO)N(Cc1ccccc1)S(=O)(=O)c1ccc(OCCF)cc1", "reported-endpoint": "pIC50", "result-number": 7.30}
{"smiles-code": "CN1C(=O)N(C[C@H](C(=O)NO)[C@@H](CC2CCCC2)C(=O)N2CCCCC2)C(=O)C1(C)C", "reported-endpoint": "pIC50", "result-number": 7.24}
{"smiles-code": "CC(C)[C@@H](NS(=O)(=O)c1ccc(Oc2ccccc2)cc1)C(=O)NO", "reported-endpoint": "pIC50", "result-number": 8.52}

Here is the next item to consider.
Lab note: need pIC50 for CNC(=O)[C@@H](CC(=O)[C@H](CC(C)C)[C@H](CSc1ccccc1)C(=O)NO)Cc1ccccc1 on Matrix metalloproteinase-9 (Homo sapiens, UniProt P14780), anyone have it?
6.70

---

Hi, quick share: literature pIC50 data for Matrix metalloproteinase-9 (Homo sapiens, UniProt P14780), several sources combined.
Field pIC50 (float): negative decimal logarithm of the concentration in molar.

Completed entries (count: 6):
{"compound": "CC#CCOc1ccc(SC(C(=O)NO)C2CCCCC2)cc1 (configuration not stated)", "reported-endpoint": "pIC50", "result-number": 5.52}
{"compound": "O=CN(O)C(CO)CS(=O)(=O)c1ccc(Oc2ccc(OC(F)(F)F)cc2)cc1 (configuration not stated)", "reported-endpoint": "pIC50", "result-number": 9.59}
{"compound": "O=C(O)[C@@H](Cc1c[nH]c2ccccc12)NS(=O)(=O)c1ccc(-c2nnn(-c3ccccc3)n2)cc1", "reported-endpoint": "pIC50", "result-number": 7.49}
{"compound": "COc1ccc(C(=O)Nc2ccc(S(=O)(=O)N[C@H](Cc3c[nH]c4ccccc34)C(=O)O)cc2)cc1", "reported-endpoint": "pIC50", "result-number": 7.96}
{"compound": "CC(C)[C@H](NS(=O)(=O)c1ccc2c(c1)oc1ccc(-c3nccs3)cc12)C(=O)O", "reported-endpoint": "pIC50", "result-number": 5.71}
{"compound": "CC(C)[C@H](C(=O)NO)N(Cc1ccccc1)S(=O)(=O)c1ccc(N(C)C)cc1", "reported-endpoint": "pIC50", "result-number": 6.21}

Look up pIC50: O=C(NO)C(Cc1ccccc1)NS(=O)(=O)c1ccccc1 (configuration not stated)
6.00

Look up pIC50: CC(C)C[C@@H](N[C@H](CCN1C(=O)c2cc3ccccc3cc2C1=O)C(=O)O)C(=O)NC(C)c1ccccc1 (some centres not stated)
7.12
